Target: EPHB2 (UniProt P29323)
Sequence (P29323 whole entry, looked up): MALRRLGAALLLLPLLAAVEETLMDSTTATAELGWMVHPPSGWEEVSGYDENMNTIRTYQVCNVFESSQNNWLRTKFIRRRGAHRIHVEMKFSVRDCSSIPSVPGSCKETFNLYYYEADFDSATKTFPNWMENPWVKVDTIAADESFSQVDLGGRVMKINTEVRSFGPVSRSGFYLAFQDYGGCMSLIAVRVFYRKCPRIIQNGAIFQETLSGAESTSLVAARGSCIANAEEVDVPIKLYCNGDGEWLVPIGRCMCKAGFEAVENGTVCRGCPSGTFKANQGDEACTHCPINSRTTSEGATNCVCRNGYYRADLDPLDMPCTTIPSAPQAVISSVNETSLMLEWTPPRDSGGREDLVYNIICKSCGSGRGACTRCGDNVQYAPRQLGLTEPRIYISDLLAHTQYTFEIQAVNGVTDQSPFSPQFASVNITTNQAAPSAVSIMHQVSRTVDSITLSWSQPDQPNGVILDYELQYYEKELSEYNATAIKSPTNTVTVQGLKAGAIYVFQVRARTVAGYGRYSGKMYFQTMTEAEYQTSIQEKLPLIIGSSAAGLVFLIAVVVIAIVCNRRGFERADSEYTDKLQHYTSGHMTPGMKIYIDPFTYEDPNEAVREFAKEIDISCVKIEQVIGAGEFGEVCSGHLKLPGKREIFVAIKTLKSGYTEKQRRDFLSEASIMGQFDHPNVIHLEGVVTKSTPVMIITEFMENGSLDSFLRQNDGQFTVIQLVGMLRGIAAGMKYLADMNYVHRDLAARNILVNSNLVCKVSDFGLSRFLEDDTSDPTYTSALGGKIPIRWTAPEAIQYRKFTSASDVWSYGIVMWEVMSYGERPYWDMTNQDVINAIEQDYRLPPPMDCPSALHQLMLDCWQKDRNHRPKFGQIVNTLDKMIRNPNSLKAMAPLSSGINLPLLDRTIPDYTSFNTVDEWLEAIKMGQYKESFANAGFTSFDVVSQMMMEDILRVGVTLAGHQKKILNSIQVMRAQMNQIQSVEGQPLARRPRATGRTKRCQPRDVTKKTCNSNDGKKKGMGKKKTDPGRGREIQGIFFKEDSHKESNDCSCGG
Test: phosphorylation enrichment, bacterial display (enrichment ratio); higher = better substrate or ligand; peptides without Tyr show the background;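 also: 11-residue human phosphosite peptides and single-mutation variants displayed on the E. coli surface, counted by deep sequencing, each peptide's frequency after selection divided by its frequency in the unselected input library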;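 also: frequency after pTyr selection over input frequency; kinase dosed for 20-30% of maximal phosphorylation in three min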
# reported phosphorylation enrichment; entries follow
# output: bare number, no unit

See these solved cases before continuing.
Enquiry: Give the reported value of phosphorylation enrichment for this record: VHNLDYYKETT [FGFR3_Y647_K650E]
Return: 0.497

Enquiry: For FVHDNYVIRRT [CPS1_Y1450] , write its phosphorylation enrichment.
Return: 0.499

Enquiry: Note down phosphorylation enrichment recorded for DMLTLYVNTAA [SMCHD1_Y403_Q400L]
Return: 0.775

***
Enquiry: # return recorded phosphorylation enrichment for entry IDSTPYGQWFE [RPS8_Y109_R110G_YF]
Return: 0.722

Enquiry: Answer with reported phosphorylation enrichment of RVEDAYILTCN [CCT6A_Y229]
Return: 0.487

====

Here the recorded phosphorylation enrichment is given for each entry.
Target: Jak2 (UniProt O60674)
Sequence (O60674 whole entry, looked up): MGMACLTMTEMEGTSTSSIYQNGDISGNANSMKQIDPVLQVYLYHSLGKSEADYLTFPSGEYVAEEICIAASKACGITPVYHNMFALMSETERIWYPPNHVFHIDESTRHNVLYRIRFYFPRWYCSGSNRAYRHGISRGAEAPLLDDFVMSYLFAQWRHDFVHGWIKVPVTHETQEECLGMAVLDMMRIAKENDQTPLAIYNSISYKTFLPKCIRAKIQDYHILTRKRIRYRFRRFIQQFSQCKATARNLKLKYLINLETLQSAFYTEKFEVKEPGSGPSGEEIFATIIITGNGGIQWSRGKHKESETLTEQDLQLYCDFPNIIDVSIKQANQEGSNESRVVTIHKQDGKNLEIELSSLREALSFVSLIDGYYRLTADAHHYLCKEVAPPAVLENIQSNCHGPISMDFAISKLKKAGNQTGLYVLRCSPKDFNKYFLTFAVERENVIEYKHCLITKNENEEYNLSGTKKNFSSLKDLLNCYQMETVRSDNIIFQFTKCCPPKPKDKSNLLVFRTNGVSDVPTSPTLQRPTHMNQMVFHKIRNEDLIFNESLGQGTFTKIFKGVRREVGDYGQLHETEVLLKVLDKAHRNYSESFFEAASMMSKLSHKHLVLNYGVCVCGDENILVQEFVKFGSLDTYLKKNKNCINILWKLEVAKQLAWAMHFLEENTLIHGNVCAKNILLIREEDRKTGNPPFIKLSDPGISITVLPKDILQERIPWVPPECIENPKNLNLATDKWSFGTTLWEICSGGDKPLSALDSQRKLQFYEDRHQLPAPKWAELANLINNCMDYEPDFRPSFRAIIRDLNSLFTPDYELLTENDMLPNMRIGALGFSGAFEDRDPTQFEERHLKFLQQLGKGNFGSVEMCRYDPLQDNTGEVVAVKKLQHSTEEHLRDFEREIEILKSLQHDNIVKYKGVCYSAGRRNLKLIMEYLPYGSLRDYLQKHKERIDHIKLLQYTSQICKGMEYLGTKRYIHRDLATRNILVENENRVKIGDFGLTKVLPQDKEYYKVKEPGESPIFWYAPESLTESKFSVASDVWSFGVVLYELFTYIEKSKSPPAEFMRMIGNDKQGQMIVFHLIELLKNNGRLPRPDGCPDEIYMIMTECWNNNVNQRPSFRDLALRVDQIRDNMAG
Assay: phosphorylation enrichment, bacterial display (enrichment ratio); higher = better substrate or ligand; peptides without Tyr show the background

// solved cases for phosphorylation enrichment follow
Enquiry: Please tell me the measured phosphorylation enrichment for FQSKHYACIRQ [TIMP3_Y182_YF] ; system: Jak2 (UniProt O60674).
Return: 0.823

Enquiry: Report the value of phosphorylation enrichment obtained on Jak2 (UniProt O60674) for RFLRGYQQDAY [HLA-A_Y137_R138Q] .
Return: 0.803

Now look at this one.
Enquiry: # assay system Jak2 (UniProt O60674): give phosphorylation enrichment of HLAQRYLIWEC [SCN5A_Y694_R689H]
Return: 1.02

====

Biological target: Fyn (UniProt P06241)
Sequence (P06241 whole entry, looked up): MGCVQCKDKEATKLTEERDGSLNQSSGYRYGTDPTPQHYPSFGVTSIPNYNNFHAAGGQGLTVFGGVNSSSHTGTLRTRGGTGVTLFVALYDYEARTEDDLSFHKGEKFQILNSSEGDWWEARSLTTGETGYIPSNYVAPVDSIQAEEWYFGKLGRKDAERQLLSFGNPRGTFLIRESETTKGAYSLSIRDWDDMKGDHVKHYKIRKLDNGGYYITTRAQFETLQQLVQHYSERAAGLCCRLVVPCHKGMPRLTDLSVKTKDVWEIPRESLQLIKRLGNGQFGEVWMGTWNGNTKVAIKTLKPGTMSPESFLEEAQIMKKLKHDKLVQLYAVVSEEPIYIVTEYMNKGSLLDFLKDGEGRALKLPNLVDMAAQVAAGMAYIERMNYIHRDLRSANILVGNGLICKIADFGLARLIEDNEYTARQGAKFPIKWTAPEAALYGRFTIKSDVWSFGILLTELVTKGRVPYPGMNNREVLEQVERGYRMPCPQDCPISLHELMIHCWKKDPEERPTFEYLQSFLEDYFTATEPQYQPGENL
Assay: phosphorylation enrichment, bacterial display (enrichment ratio); higher = better substrate or ligand; peptides without Tyr show the background
Listing of recorded phosphorylation enrichment by entry.
Would you mind answering with just the numeric figure?

Enquiry: Provide one value: measured phosphorylation enrichment of DSFSSYCNAVA [SLC20A2_Y436_YF]
Return: 0.509

***
Enquiry: Quickly give me recorded phosphorylation enrichment for SNYRAYATEPH [TNNI3_Y29]
Return: 0.404

Enquiry: Give phosphorylation enrichment for the following sequence: VHHLVYHHHHH [CACNA1H_Y519]
Return: 0.546

Enquiry: State its phosphorylation enrichment: PHRSIYFSSPK [MPG_Y75_Y71H]
Return: 0.982

Enquiry: State its phosphorylation enrichment: GDYLSYREFHS [ERBIN_Y1107]
Return: 2.8

Enquiry: Provide measured phosphorylation enrichment value, entry: ADRTRYSAFGG [RBM4_Y361_A359T]
Return: 0.413

Enquiry: For the sequence RAIGFYSATSK [FAM120A_Y328_YF] , report phosphorylation enrichment.
Return: 0.685

Enquiry: Hello, please tell me recorded phosphorylation enrichment for this one: FEEDSYSHIMA [FDPS_Y388_YF]
Return: 0.634

Enquiry: Give reported phosphorylation enrichment value for GNLLIYTELGK [HGD_Y166_F169L]
Return: 5.68

====

Tested on: AncSZ
Test: phosphorylation enrichment, bacterial display (enrichment ratio); higher = better substrate or ligand; peptides without Tyr show the background
phosphorylation enrichment values, listed per item
No unit in the answer, only the number.

Enquiry: Using known records, supply phosphorylation enrichment for HLTNQFMQRVA [PABPC4_Y382_Y382F]
Return: 0.791

Enquiry: Indicate the recorded phosphorylation enrichment value for this sequence: DYNPNYCFAGK [ALK_Y1096]
Return: 1.82

Enquiry: Provide one value: measured phosphorylation enrichment of RAIGFYSATSK [FAM120A_Y328_YF]
Return: 1.51

Enquiry: Provide measured phosphorylation enrichment value, entry: DENWFYTRAAS [RPS19_Y54]
Return: 1.13

Enquiry: Recall and state the measured phosphorylation enrichment for DDEESYENVPR [FCRL3_Y722_N721S] .
Return: 1.12

Enquiry: Read the entry IWIFHYAKGQP [MPZ_Y82_S78W] and write its reported phosphorylation enrichment.
Return: 1.26

Enquiry: # return recorded phosphorylation enrichment for entry AGREEYSAMRD [KRAS_Y64_Q61R]
Return: 0.787

Enquiry: Let me know recorded phosphorylation enrichment for GRQGIYTENKR [GPR143_Y231_E235K] , thanks.
Return: 0.723

Enquiry: Please give measured phosphorylation enrichment of the following entry: GNHISYFQSDG [CACNA1C_Y1757_V1755I_YF]
Return: 0.742

Enquiry: Give recorded phosphorylation enrichment. RISRKYKKVRF [F8_Y442_G439S]
Return: 0.879

Enquiry: Return the recorded phosphorylation enrichment value; entry: GKFFQYDTWNQ [IGF2_Y116_K120N]
Return: 1.06

Enquiry: State its phosphorylation enrichment for this sequence: TDGNGYISFNE [LCP1_Y28]
Return: 0.923

Enquiry: Annotate the sequence KGELRYMHSRV [ABCD1_Y281] with its measured phosphorylation enrichment.
Return: 0.568

Enquiry: Tell us which phosphorylation enrichment value is on record for TQIGQYGNGLK [MORC2_Y100]
Return: 0.475

Enquiry: Give recorded phosphorylation enrichment. ATVRPYRPYII [LRP5_Y1528_A1525V]
Return: 0.777

Enquiry: Identify the reported phosphorylation enrichment for the following entry. HNLDFYKMTTN [FGFR3_Y648_K650M_YF]
Return: 2.03

Enquiry: Return phosphorylation enrichment (reported value) for this sequence: FISVGYVDGTQ [HLA-B_Y51_D54G]
Return: 0.741

Enquiry: Answer with the recorded phosphorylation enrichment for the sequence listed here: SVVVPYEAPEV [TP53_Y220_P222A]
Return: 1.2

Enquiry: Report phosphorylation enrichment for GQSKGYRPKLF [SIPA1L3_Y1376_YF]
Return: 0.433

====

Target: Hck (UniProt P08631)
Sequence (P08631 whole entry, looked up): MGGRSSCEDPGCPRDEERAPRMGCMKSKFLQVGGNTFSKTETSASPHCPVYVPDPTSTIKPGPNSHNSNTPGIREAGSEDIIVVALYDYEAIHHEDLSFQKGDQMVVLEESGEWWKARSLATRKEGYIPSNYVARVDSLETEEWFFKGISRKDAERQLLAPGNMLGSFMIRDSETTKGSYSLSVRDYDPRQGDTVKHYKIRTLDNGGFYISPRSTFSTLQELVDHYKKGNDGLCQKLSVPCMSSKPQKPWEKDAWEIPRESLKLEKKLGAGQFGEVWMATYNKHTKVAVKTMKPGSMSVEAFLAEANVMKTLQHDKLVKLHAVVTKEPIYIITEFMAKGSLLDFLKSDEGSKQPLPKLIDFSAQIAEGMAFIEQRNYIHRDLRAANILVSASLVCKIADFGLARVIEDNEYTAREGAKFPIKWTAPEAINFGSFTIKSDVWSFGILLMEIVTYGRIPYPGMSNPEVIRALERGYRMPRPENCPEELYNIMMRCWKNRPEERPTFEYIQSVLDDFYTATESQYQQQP
Test: phosphorylation enrichment, bacterial display (enrichment ratio); higher = better substrate or ligand; peptides without Tyr show the background
# Lookup of reported phosphorylation enrichment keyed by entry
Simply state the number, no unit and no words.

Enquiry: Please give measured phosphorylation enrichment of the following entry: RFLRGYQQDAY [HLA-A_Y137_R138Q]
Return: 0.404

Enquiry: Tell me measured phosphorylation enrichment for EKKDVYKTGEQ [CFH_Y1008_A1010T] please.
Return: 0.561

Enquiry: State, in one line, measured phosphorylation enrichment of KGFRGYSFDDI [TMEM230_Y110_YF]
Return: 0.412

Enquiry: Provide measured phosphorylation enrichment value, entry: FEEDSYSHIMA [FDPS_Y388_YF]
Return: 0.972

Enquiry: Quick one: give measured phosphorylation enrichment for KGKLIYLLRDS [NXPE1_Y350_G353R]
Return: 0.599

Enquiry: Consider the sequence VHNLDYYKETT [FGFR3_Y647_K650E] and give its recorded phosphorylation enrichment.
Return: 0.456

====

Biological target: Fes (UniProt P07332)
Sequence (P07332 whole entry, looked up): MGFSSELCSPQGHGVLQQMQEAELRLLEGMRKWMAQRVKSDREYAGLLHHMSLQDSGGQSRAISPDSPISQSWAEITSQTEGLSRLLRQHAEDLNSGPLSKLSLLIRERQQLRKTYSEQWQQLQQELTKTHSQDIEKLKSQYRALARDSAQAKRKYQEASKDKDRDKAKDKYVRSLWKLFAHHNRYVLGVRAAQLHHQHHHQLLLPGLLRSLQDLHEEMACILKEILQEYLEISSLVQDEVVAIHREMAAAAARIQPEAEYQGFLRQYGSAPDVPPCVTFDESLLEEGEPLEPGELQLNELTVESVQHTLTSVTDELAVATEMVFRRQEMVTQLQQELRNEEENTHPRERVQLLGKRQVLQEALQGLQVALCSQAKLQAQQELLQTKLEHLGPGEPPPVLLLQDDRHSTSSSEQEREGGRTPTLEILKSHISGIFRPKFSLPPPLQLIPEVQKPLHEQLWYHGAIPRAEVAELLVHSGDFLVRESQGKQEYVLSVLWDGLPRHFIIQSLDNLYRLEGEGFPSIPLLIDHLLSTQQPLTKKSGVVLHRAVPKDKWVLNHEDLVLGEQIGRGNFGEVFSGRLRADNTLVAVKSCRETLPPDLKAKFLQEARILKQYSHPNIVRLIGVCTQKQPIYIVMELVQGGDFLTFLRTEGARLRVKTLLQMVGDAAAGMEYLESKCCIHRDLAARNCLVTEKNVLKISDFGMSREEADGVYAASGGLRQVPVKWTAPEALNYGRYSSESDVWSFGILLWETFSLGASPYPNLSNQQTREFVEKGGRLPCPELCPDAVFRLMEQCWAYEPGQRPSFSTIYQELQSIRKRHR
Assay: phosphorylation enrichment, bacterial display (enrichment ratio); higher = better substrate or ligand; peptides without Tyr show the background
Readings of phosphorylation enrichment for the listed sequences

Enquiry: Quickly give me recorded phosphorylation enrichment for SFHCSYSEIKD [DCLRE1C_Y322_S320C]
Return: 1.21

Enquiry: Fill in reported phosphorylation enrichment for this entry: MPPHICAITDT [MYH9_Y151_Y151C]
Return: 1.1

Enquiry: # return recorded phosphorylation enrichment for input KDYETYQSFQN [CTNND2_Y1157_P1159S]
Return: 1.03

More entries:
Enquiry: Please report phosphorylation enrichment for the following sequence: EHAGEYGAEAL [HBA1_Y25_A20E]
Return: 0.896

====

Test system: c-Src
Assay: phosphorylation enrichment, bacterial display (enrichment ratio); higher = better substrate or ligand; peptides without Tyr show the background
Outcome label depends on phosphorylation enrichment relative to 0.5: at/above gives rule met, below gives rule not met.

Worked examples follow.
Enquiry: Could you tell me if the measured phosphorylation enrichment of SRVTQYERDFE [SNX1_Y463] reaches 0.5 or more?
Return: rule not met

Enquiry: Form field: phosphorylation enrichment at least 0.5? Entry: DNAFQYMLTDR [MYH7_Y164_YF]
Return: rule met

Enquiry: Exam item: decide whether the reported phosphorylation enrichment for EDDIIYTQDFT [STK11_Y362] is at least 0.5.
Return: rule met

Enquiry: # bool: phosphorylation enrichment of RTCSSYTIEKI [PARP15_Y520_A521T] >= 0.5
Return: rule met

Others:
Enquiry: Would you say PLGKDYRKVEG [MAP1A_Y1909_A1912V] shows phosphorylation enrichment at minimum 0.5?
Return: rule met

====

Listed here are sequences together with their documented phosphorylation enrichment.
Molecular target: Hck (UniProt P08631)
Test: phosphorylation enrichment, bacterial display (enrichment ratio); higher = better substrate or ligand; peptides without Tyr show the background
Just the number, please, no unit attached.

Enquiry: Could you please provide reported phosphorylation enrichment for NFADPYRQLQF [CTNND2_Y503_YF] ? Thanks!
Return: 0.539

Enquiry: Please report phosphorylation enrichment for the following sequence: VHHLVYHHHHH [CACNA1H_Y519]
Return: 0.65

Enquiry: Please list phosphorylation enrichment recorded for the sequence HHTDEYEFDEL [TGM1_Y134_YF]
Return: 0.697

Enquiry: Answer with the recorded phosphorylation enrichment of TLQTMYGCDVG [HLA-B_Y123_S121T] only.
Return: 0.579

Enquiry: State its phosphorylation enrichment for this sequence: FVTSMYNEILI [TRPV1_Y310_M315I]
Return: 1.14

***
Enquiry: Give recorded phosphorylation enrichment. CTTIHYNYMCT [TP53_Y234_N239T]
Return: 0.545

Enquiry: Item ADCRYYTFPQM [GAMT_Y223_A224T] : provide phosphorylation enrichment
Return: 3.29

Data provenance: the supplement of paper PMC10065799
